Examples of molecules with documented pIC50 follow.
Target: TNAP (Homo sapiens)
Sequence (P05186 18-502 limits assumed): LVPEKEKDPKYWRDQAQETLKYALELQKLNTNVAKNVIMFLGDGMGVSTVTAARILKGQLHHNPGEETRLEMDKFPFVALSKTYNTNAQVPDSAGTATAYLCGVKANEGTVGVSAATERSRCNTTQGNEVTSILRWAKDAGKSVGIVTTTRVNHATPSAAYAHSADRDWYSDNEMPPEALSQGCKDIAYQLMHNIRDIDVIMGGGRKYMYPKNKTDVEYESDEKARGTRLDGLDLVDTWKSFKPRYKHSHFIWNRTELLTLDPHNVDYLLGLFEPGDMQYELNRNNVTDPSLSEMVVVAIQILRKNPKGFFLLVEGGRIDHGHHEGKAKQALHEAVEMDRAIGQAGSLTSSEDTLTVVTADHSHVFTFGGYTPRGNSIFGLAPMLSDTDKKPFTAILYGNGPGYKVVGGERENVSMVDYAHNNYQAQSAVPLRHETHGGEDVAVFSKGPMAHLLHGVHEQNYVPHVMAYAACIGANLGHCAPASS
pIC50: −log10 of the molar value. Structures can show the parent of a compound that is named as a salt.

Here is how some molecules turned out for pIC50.
> print(dat)
                                   molecule     obs.value
1  CNC(=O)N1CCc2ncc(NS(=O)(=O)c3cc(Br)ccc3OC)cc2C1  7.00 to 8.00
2  COc1ccc(F)cc1S(=O)(=O)Nc1cnc2c(c1)C(=O)NCC2  7.00 to 8.00
3  O=S(=O)(Nc1cnc2c(c1)CNCC2)c1cc(F)ccc1Br [Example 91, hydrochloride]        ≤ 6.00
4  COc1ccc(-c2ccc(OC)c(S(=O)(=O)Nc3cnc4c(c3)C(=O)NCC4)c2)cc1        ≤ 6.00
5  COc1ccc(-c2c(C)nn(C)c2C)cc1S(=O)(=O)Nc1cnc2c(c1)C(=O)NCC2  6.00 to 7.00
6  COc1ccc(-c2cnn(C(C)c3nc(-c4ccc(F)cc4)no3)c2)cc1S(=O)(=O)Nc1cnc2c(c1)C(=O)NCC2 (centres unmarked)        ≤ 6.00
7  COc1ccc(Br)cc1S(=O)(=O)Nc1cnc2c(c1)CN(C(=O)OCC(C)(C)C)CC2  6.00 to 7.00

Could you now consider this next molecule?
Problem: Look up pIC50: "O=C1NCc2ncc(NS(=O)(=O)c3cc(F)ccc3Br)cc21"
Result: ≤ 6.00
